Values were extracted from the DeepSol protein solubility set.

- procedure-summary: soluble on expression in E. coli; label from the status in PepcDB or PDB records
measurement-type: soluble on expression in E. coli

{"sequence-content": "MGSDKIHHHHHHMTSRTPLVSVLPDFPWDSLASAKAKAASHPDGIVNLSVGTPVDPVAPSIQIALAEAAGFSGYPQTIGTPELRAAIRGALERRYNMTKLVDASLLPVVGTKEAIALLPFALGISGTVVIPEIAYPTYEVAVVAAGCTVLRSDSLFKLGPQIPSMMFINSPSNPTGKVLGIPHLRKVVKWAQENNVILAADECYLGLGWDDENPPISILDPRVCDGDHTNLIAIHSLSKTSNLASYRAGYLVGDPALIGELTEVRKNLGLMVPFPIQQAMIAALNDDDQEAGQKLTYAIRRAKLMRALLESGFQVDNSEAGLYLWATREEPCRDTVDWFAERGILVAPGDFYGPRGAQHVRVAMTETDERVDAFVSRLS", "assay-value": "not soluble"}
{"sequence-content": "MSLNQGEQLPGNYRVEIYLNGEKVDVGEFPFHRPESPEEKELVPCLTVDDLIHYGIKIDKSSSDTDNKKNQCFKWNSIEGLKVNYDFDSQRVQITVPQLYLQDKKSSLAPVSLWNEGVAAFRMVYQTNIDISKQNDNQSTTRNSRYGRFTPGFNLGAWRFRSSVTWSKELGQSERWQRGYMWFERGINAIKSRLTLGESYTSSEVFDSIPFRGGMLATDDAMTPPEDSYYTPVVHGIAQSEAQVIIKQNGQIIFTRSVPPGPFALDNLPTLAVGGELDVTVRESNGEEQYFSVPFQTPAIALHEGYFKYSVMGGNIKKKEGHHHHHH", "assay-value": "not soluble"}
